- Tested target: T1, Activin A (UniProt P08476)
- T1 sequence (looked up): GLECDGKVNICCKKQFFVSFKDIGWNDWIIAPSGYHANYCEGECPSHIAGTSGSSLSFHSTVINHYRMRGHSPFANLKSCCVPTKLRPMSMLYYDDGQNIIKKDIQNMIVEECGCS
- Procedure text: cell-based or functional assay
Quick reference: IC50 (ng/mL), Activin, reporter assay, conditioned media of the listed items.
A number alone suffices; assume ng/mL.

Worked set:
Binder	Units	Measured
ActRIIB(21-131)-hFc (Fc fusion, not shown: a dimerising Fc or GST) RGEAETRECIYYNANWELERTNQSGLERCEGEQDKRLHCYASWRNSSGTIELVKKGCWLDDFNCYDRQECVATEENPQVYFCCCEGNFCNERFTHLPEAGGPEVTYEPPPT	ng/mL	325
ActRIIB(22-131)-hFc (Fc fusion, not shown: a dimerising Fc or GST) GEAETRECIYYNANWELERTNQSGLERCEGEQDKRLHCYASWRNSSGTIELVKKGCWLDDFNCYDRQECVATEENPQVYFCCCEGNFCNERFTHLPEAGGPEVTYEPPPT	ng/mL	100
ActRIIB(24-131)-hFc (Fc fusion, not shown: a dimerising Fc or GST) AETRECIYYNANWELERTNQSGLERCEGEQDKRLHCYASWRNSSGTIELVKKGCWLDDFNCYDRQECVATEENPQVYFCCCEGNFCNERFTHLPEAGGPEVTYEPPPT	ng/mL	105
ActRIIB(23-131)-hFc (Fc fusion, not shown: a dimerising Fc or GST) EAETRECIYYNANWELERTNQSGLERCEGEQDKRLHCYASWRNSSGTIELVKKGCWLDDFNCYDRQECVATEENPQVYFCCCEGNFCNERFTHLPEAGGPEVTYEPPPT	ng/mL	43

// next entry
# input Find the recorded IC50 (ng/mL), Activin, reporter assay, conditioned media belonging to ActRIIB(20-131)-hFc (Fc fusion, not shown: a dimerising Fc or GST) GRGEAETRECIYYNANWELERTNQSGLERCEGEQDKRLHCYASWRNSSGTIELVKKGCWLDDFNCYDRQECVATEENPQVYFCCCEGNFCNERFTHLPEAGGPEVTYEPPPT and report it.
# output 201

Origin of measurements: patent US20190263876A1
